Each recorded value in this set is attributed to patent US20070231871A1.

Each item that follows carries a reported Rate.
Molecular target: Styrene monooxygenase (StyAB), FAD-dependent monooxygenase component (StyA) (Pseudomonas sp, UniProt O50214)
Construct: made in house; host or cells: Escherichia coli JM101
Sequence (O50214 1-415): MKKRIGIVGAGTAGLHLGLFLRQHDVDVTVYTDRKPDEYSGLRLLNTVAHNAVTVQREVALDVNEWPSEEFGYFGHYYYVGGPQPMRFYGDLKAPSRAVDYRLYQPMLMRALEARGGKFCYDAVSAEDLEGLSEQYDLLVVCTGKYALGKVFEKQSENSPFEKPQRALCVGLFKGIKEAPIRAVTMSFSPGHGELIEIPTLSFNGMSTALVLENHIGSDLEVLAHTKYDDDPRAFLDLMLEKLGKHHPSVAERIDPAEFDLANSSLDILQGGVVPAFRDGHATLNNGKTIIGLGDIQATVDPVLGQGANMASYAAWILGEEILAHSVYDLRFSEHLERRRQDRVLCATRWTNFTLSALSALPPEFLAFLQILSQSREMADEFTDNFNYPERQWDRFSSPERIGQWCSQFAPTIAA
Assay: Electroenzymatic epoxidation of styrene derivatives by StyA with direct electrochemical FAD regeneration
Assay type: biochemical
Conditions: potassium phosphate buffer 50 mM pH 7.5, T = 30° C., c(StyA) = 2.13 μM, c(FAD) = 300 μM, catalase 480 U mL^−1, substrate 2 mM, cathode 14 cm^2, −550 mV vs. Ag/AgClsat

Compound: C1=Cc2ccccc2CC1
Rate: 58.9 U g^−1

Compound: C=C(C)c1ccccc1
Rate: 14.6 U g^−1

Compound: C/C=C/c1ccccc1 [trans-β-methyl styrene]
Rate: 35.5 U g^−1

Compound: C=Cc1ccccc1
Rate: 28.1 U g^−1
